pIC50: −log10 of the molar value.
These compounds were tested on ALK5 (Homo sapiens (Human), UniProt P36897); pIC50 is the recorded read-out.
Sequence (P36897 34-503, species assumed): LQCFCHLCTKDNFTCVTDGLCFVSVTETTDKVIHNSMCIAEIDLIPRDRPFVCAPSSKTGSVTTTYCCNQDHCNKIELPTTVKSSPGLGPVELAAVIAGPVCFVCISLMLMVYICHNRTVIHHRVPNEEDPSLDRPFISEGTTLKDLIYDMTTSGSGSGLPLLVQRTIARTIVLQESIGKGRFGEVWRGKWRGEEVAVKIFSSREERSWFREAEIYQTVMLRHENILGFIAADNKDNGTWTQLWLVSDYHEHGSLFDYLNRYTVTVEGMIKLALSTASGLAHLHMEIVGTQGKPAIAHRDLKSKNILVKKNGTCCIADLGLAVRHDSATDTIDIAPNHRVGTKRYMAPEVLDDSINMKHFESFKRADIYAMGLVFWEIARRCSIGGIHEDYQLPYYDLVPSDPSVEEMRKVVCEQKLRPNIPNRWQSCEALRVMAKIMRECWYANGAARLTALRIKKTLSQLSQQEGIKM

- COMPOUND: "Cc1cccc(-c2c(F)cccc2-c2ccc3ncc(C(N)=O)n3c2)n1"
  INEQUALITY SIGN: "="
  pIC50: 7.09
- COMPOUND: "Cc1cccc(-c2ccccc2-c2ccc3ncc(C(=O)NCCN4CCOCC4)n3c2)n1"
  INEQUALITY SIGN: "="
  pIC50: 7.19
- COMPOUND: "NC(=O)c1cnc2ccc(-c3ccccc3-c3ccccn3)cn12"
  INEQUALITY SIGN: "="
  pIC50: 7.07
- COMPOUND: "Cc1cccc(-c2ccccc2-c2ccc3ncc(S(N)(=O)=O)n3c2)n1"
  INEQUALITY SIGN: "="
  pIC50: 6.24
- COMPOUND: "Cc1cccc(-c2ccccc2-c2ccc3c(cnn3C(N)=O)c2)n1"
  INEQUALITY SIGN: "<"
  pIC50: 5.00
- COMPOUND: "Cc1cccc(-c2ccccc2-c2ccc3ncnc(N)c3c2)n1"
  INEQUALITY SIGN: "="
  pIC50: 6.47
- COMPOUND: "Cc1cccc(-c2ccccc2-c2ccc3nncn3c2)n1"
  INEQUALITY SIGN: "<"
  pIC50: 5.00
- COMPOUND: "Cc1cccc(-c2cscc2-c2ccc3ncc(C(N)=O)n3c2)n1"
  INEQUALITY SIGN: "="
  pIC50: 8.16
- COMPOUND: "Cc1cncc(-c2ccccc2-c2ccc3ncc(C(N)=O)n3c2)n1"
  INEQUALITY SIGN: "="
  pIC50: 6.49
- COMPOUND: "Cc1cccc(-c2ccccc2-c2ccc3ncc(C(=O)NO)n3c2)n1"
  INEQUALITY SIGN: "="
  pIC50: 7.35
- COMPOUND: "Cc1nc(-c2ccccc2-c2ccc3ncc(C(N)=O)n3c2)ccc1F"
  INEQUALITY SIGN: "="
  pIC50: 7.74
- COMPOUND: "COc1ccc(-c2cccc(C)n2)c(-c2ccc3ncc(C(N)=O)n3c2)c1"
  INEQUALITY SIGN: "="
  pIC50: 7.42
- COMPOUND: "Cc1nc(-c2ccccc2-c2ccc3ncc(C(N)=O)n3c2)cs1"
  INEQUALITY SIGN: "="
  pIC50: 6.71
- COMPOUND: "Cc1cccc(-c2ccccc2-c2ccn3ncc(C(N)=O)c3c2)n1"
  INEQUALITY SIGN: "="
  pIC50: 7.28
- COMPOUND: "Cc1cccc(-c2ccccc2-c2ccnc3ccc(C(N)=O)cc23)n1 [Compound C-1, reference compound]"
  INEQUALITY SIGN: "<"
  pIC50: 5.00
- COMPOUND: "Cc1ccn(-c2ccccc2-c2ccc3ncc(C(N)=O)n3c2)n1"
  INEQUALITY SIGN: "="
  pIC50: 6.47
- COMPOUND: "Cc1cccc(-c2ccccc2-c2ccc3ncc(N)n3c2)n1"
  INEQUALITY SIGN: "="
  pIC50: 6.25
- COMPOUND: "Cc1cccc(-c2ccccc2-c2ccc3ncnn3c2)n1"
  INEQUALITY SIGN: "="
  pIC50: 6.44
- COMPOUND: "Cc1cccc(-c2ccccc2-c2ccc3nc(C)c(C(N)=O)n3c2)n1"
  INEQUALITY SIGN: "="
  pIC50: 5.53

Data provenance is patent US11466003B2.
